Every entry's value here was drawn from patent US10597388B2.

Test system: nutsedge, yellow (yellow nutsedge, Cyperus esculentus)
Experiment: Test C greenhouse herbicide test, pre- and postemergence
Format: in vivo
Settings: postemergence, 62 g ai/ha; scale 0 to 100, 0 no effect, 100 complete control
outcome.measure: Nutsedge, Yellow plant response rating

mol.smiles | recorded.value
CCOC(=O)Oc1c(C)nn(C)c(=O)c1-c1c(C)sc2ccc(C)cc12 | 80
Cc1nn(C)c(=O)c(-c2c(C)sc3ccccc23)c1O | 50
Cc1ccc2ccccc2c1-c1c(O)cnn(C)c1=O | 5
CC(=O)Oc1c(C)nn(C)c(=O)c1-c1c(C)sc2ccc(C)cc12 | 75
C#CCOC(=O)Oc1c(C)nn(C)c(=O)c1-c1c(C)sc2ccc(C)cc12 | 80

====

Test system: pigweed (Amaranthus retroflexus)
Test: Test A greenhouse herbicide test, pre- and postemergence
Assay type: in vivo
Details: Preemergence, 125 g ai/ha; visual injury rating, 0 to 100 scale (0 no effect, 100 complete control), approx. 10 d
Hi! Could you tag entries with Plant response rating, Pigweed below 50 as true, and those at or above as false? Much appreciated.

mol.smiles | label.class
CC(=O)Oc1c(C)nn(C)c(=O)c1-c1c([N+](=O)[O-])ccc2ccccc12 | false
CC(=O)Oc1c(C)nn(C)c(=O)c1-c1ccc(Cl)c2ccccc12 | false
Cc1nn(C)c(=O)c(-c2c(C)sc3ccccc23)c1OC(=O)N1CCOCC1 | true
Cc1ccc2ccccc2c1-c1c(O)c([N+](=O)[O-])nn(C)c1=O | true

====

Test system: velvetleaf (Abutilon theophrasti)
Test: Test C greenhouse herbicide test, pre- and postemergence
Type: in vivo
Details: Postemergence, 62 g ai/ha; 0 to 100 scale (0 no effect, 100 complete control)
Text: […]
outcome.measure: Velvetleaf plant response rating

molecule | assayed.system | outcome.measure | recorded.value
Cc1ccc2ccccc2c1-c1c(OC(=O)N2CCOCC2)c(Br)nn(C)c1=O [Compound 176] | velvetleaf (Abutilon theophrasti) | Velvetleaf plant response rating | 25
COC(=O)Oc1c(C)nn(C)c(=O)c1-c1c([N+](=O)[O-])ccc2ccccc12 [Compound 162] | velvetleaf (Abutilon theophrasti) | Velvetleaf plant response rating | 15
COC(=O)Oc1c(Br)nn(C)c(=O)c1-c1c(C)ccc2ccccc12 [Compound 137] | velvetleaf (Abutilon theophrasti) | Velvetleaf plant response rating | 90
CSCC(=O)Oc1c(C)nn(C)c(=O)c1-c1cccc2ccccc12 [Compound 171] | velvetleaf (Abutilon theophrasti) | Velvetleaf plant response rating | 70

====

Test system: wheat, winter (winter wheat, Triticum aestivum)
Experiment: Test D controlled growth environment herbicide test, pre- and postemergence
Assay type: in vivo
Conditions: Preemergence, 125 g ai/ha; scale 0 to 100 (0 no effect, 100 complete control)
Readings of Plant response rating, Wheat, Winter for the listed compounds

mol.smiles | Plant response rating, Wheat, Winter
CC(=O)Oc1c(C)nn(C)c(=O)c1-c1c(C)cc(C)c2ccccc12 | 45
CC(=O)Oc1c(C)nn(C)c(=O)c1-c1c(C)sc2c(C)cc(C)cc12 | 0
Cc1nn(C)c(=O)c(-c2c(C)sc3ccc(Cl)cc23)c1O | 5
Cc1ccc(-c2c(O)c(Br)nn(C)c2=O)c2ccccc12 | 0
Cc1ccc2ccc(C)c(-c3c(O)c(C)nn(C)c3=O)c2c1 | 55
CC(=O)Oc1c(C)nn(C)c(=O)c1-c1c(C)sc2ccc(C)cc12 | 0
CCC(=O)Oc1c(C)nn(C)c(=O)c1-c1c(C)sc2c(C)cc(C)cc12 | 0

====

Plant response rating, Kochia reference
Tested on: kochia (Kochia scoparia)
Assay: Test A greenhouse herbicide test, pre- and postemergence
Assay type: in vivo
Conditions: Postemergence, 125 g ai/ha; 0 to 100 scale, 0 no effect, 100 complete control

compound | Plant response rating, Kochia
Cc1ccc2sc(C)c(-c3c(OCC#N)c(C)nn(C)c3=O)c2c1 [Compound 160] | 30
Cc1nn(C)c(=O)c(-c2c([N+](=O)[O-])ccc3ccccc23)c1OC(=O)C(C)(C)C [Compound 163] | 0
Cc1n[nH]c(=O)c(-c2cccc3ccccc23)c1OC(F)F [Compound 175] | 0
CC(=O)Oc1c(C)nn(C)c(=O)c1-c1c(C)cc(C)c2ccccc12 [Compound 153] | 40
Cc1nn(C)c(=O)c(-c2ccc(Cl)c3ccccc23)c1OP(C)(C)=O [Compound 187] | 90
CC(=O)Oc1c(C)nn(C)c(=O)c1-c1ccc(Cl)c2ccccc12 [Compound 157] | 100
Cc1ccc2ccccc2c1-c1c(OS(C)(=O)=O)c(Br)nn(C)c1=O [Compound 155] | 70

====

# reported Pigweed plant response rating; entries follow
Tested on: pigweed (Amaranthus retroflexus)
Experiment: Test A greenhouse herbicide test, pre- and postemergence
Type: in vivo
Conditions: Preemergence, 125 g ai/ha; 0 to 100 scale where 0 is no effect and 100 is complete control
outcome.measure: Pigweed plant response rating

molecule | recorded.value
COC(=O)Oc1c(Br)nn(C)c(=O)c1-c1c(C)ccc2ccccc12 [Compound 137] | 100
COc1nn(C)c(=O)c(-c2c(C)sc3ccc(Cl)cc23)c1OS(C)(=O)=O [Compound 135] | 30
CC(=O)Oc1c(C)nn(C)c(=O)c1-c1c(C)sc2cc(C)cc(C)c12 [Compound 44] | 0
CCC(=O)Oc1c(C)nn(C)c(=O)c1-c1c(C)sc2ccc(Cl)cc12 [Compound 109] | 100
CCC(=O)Oc1c(C)nn(C)c(=O)c1-c1ccc(Br)c2ccccc12 [Compound 133] | 80
COc1nn(C)c(=O)c(-c2c(C)sc3ccc(Cl)cc23)c1O [Compound 100] | 100
Cc1ccc(-c2c(O)c(Br)nn(C)c2=O)c2ccccc12 [Compound 52] | 10
CCC(=O)Oc1c(C)nn(C)c(=O)c1-c1c(C)sc2ccc(C)cc12 [Compound 42] | 100
Cc1cc(C)c2sc(C)c(-c3c(OC(=O)OC(C)C)c(C)nn(C)c3=O)c2c1 [Compound 67] | 90

====

Recorded Wheat plant response rating values for a group of compounds are listed next.
Test system: wheat (winter wheat, Triticum aestivum)
Assay: Test C greenhouse herbicide test, pre- and postemergence
Type: in vivo
Conditions: postemergence, 62 g ai/ha; scale 0 to 100, 0 no effect, 100 complete control
outcome.measure: Wheat plant response rating

mol.smiles | recorded.value
CCOC(=O)Oc1c(C)nn(C)c(=O)c1-c1c(C)sc2c(C)cc(C)cc12 | 0
Cc1cc(C)c2sc(C)c(-c3c(OC(=O)OC(C)C)c(C)nn(C)c3=O)c2c1 | 0
COc1nn(C)c(=O)c(-c2c(C)ccc3ccccc23)c1OC(=O)OC(C)C | 0
CC(=O)Oc1c(C#N)nn(C)c(=O)c1-c1c(C)ccc2ccccc12 | 10
Cc1cc(C)c2sc(C)c(-c3c(OC(=O)OCCCl)c(C)nn(C)c3=O)c2c1 | 0

====

Quick list: Plant response rating, Horseweed per entry.
Test system: horseweed (Conyza canadensis)
Assay: Test E greenhouse herbicide test, pre- and postemergence
Type: in vivo
Conditions: 62 g ai/ha, Postemergence; scale 0 to 100 (0 no effect, 100 complete control)

mol.smiles | assayed.system | Plant response rating, Horseweed
CC(=O)Oc1c(C)nn(C)c(=O)c1-c1c(C)cc(C)c2ccccc12 | horseweed (Conyza canadensis) | 80
CCOC(=O)Oc1c(C)nn(C)c(=O)c1-c1c(C)sc2ccc(C)cc12 | horseweed (Conyza canadensis) | 70
COc1nn(C)c(=O)c(-c2c(C)sc3ccc(Cl)cc23)c1O | horseweed (Conyza canadensis) | 70
COC(=O)Oc1c(C)nn(C)c(=O)c1-c1c(C)sc2c(C)cc(C)cc12 | horseweed (Conyza canadensis) | 75
CCC(=O)Oc1c(C)nn(C)c(=O)c1-c1c(C)sc2ccc(C)cc12 | horseweed (Conyza canadensis) | 75

====

System: radish, wild (wild radish, Raphanus raphanistrum)
Experiment: Test D controlled growth environment herbicide test, pre- and postemergence
Type: in vivo
Settings: Preemergence, 62 g ai/ha; scale 0 to 100 (0 no effect, 100 complete control)

molecule | Plant response rating, Radish, Wild
CCC(=O)Oc1c(C)nn(C)c(=O)c1-c1c(C)sc2c(C)cc(C)cc12 [Compound 28] | 0
CC(=O)Oc1c(C)nn(C)c(=O)c1-c1c(C)sc2ccc(C)cc12 [Compound 25] | 0
COC(=O)Oc1c(C)nn(C)c(=O)c1-c1c(C)sc2c(C)cc(C)cc12 [Compound 81] | 50
CC(=O)Oc1c(C)nn(C)c(=O)c1-c1c(C)sc2c(C)cc(C)cc12 [Compound 27] | 50

====

Test system: ryegrass, Italian (Italian ryegrass, Lolium multiflorum)
Test: Test A greenhouse herbicide test, pre- and postemergence
Type: in vivo
Conditions: Preemergence, 125 g ai/ha; 0 to 100 scale where 0 is no effect and 100 is complete control

mol.smiles | assayed.system | Ryegrass, Italian plant response rating
CCOC(=O)Oc1c(C)nn(C)c(=O)c1-c1c(C)sc2c(C)cc(C)cc12 | ryegrass, Italian (Italian ryegrass, Lolium multiflorum) | 100
Cc1nn(C)c(=O)c(-c2c(C)sc3ccccc23)c1O | ryegrass, Italian (Italian ryegrass, Lolium multiflorum) | 90
Cc1ccc2ccccc2c1-c1c(O)c(C)nn(C)c1=O | ryegrass, Italian (Italian ryegrass, Lolium multiflorum) | 90
C#CCOC(=O)Oc1c(C)nn(C)c(=O)c1-c1c(C)sc2ccc(C)cc12 | ryegrass, Italian (Italian ryegrass, Lolium multiflorum) | 90
CC(=O)Oc1c(Br)nn(C)c(=O)c1-c1c(C)ccc2ccccc12 | ryegrass, Italian (Italian ryegrass, Lolium multiflorum) | 100
CCc1ccc2ccccc2c1-c1c(OC(=O)OC(C)C)c(C)nn(C)c1=O | ryegrass, Italian (Italian ryegrass, Lolium multiflorum) | 40
Cc1sc2ccc(Cl)cc2c1-c1c(OS(C)(=O)=O)c(Cl)nn(C)c1=O | ryegrass, Italian (Italian ryegrass, Lolium multiflorum) | 80
COC(=O)Oc1c(C)nn(C)c(=O)c1-c1c(C)sc2c(C)cc(C)cc12 | ryegrass, Italian (Italian ryegrass, Lolium multiflorum) | 100
COc1nn(C)c(=O)c(-c2c(C)sc3ccc(Cl)cc23)c1O | ryegrass, Italian (Italian ryegrass, Lolium multiflorum) | 90
